assay: soluble on expression in E. coli; label from the status in PepcDB or PDB records
Measured quantity: soluble on expression in E. coli

seq_text=MKEKIPFYNEKEFHDMVKKTKKGTFSGWYIIDKDNKSVEFSGSFNRQFKLNKPVIPVNTEYVTRKEFNEYKVSNDQRLTKIETTLAAQGEQINKLTQTVEKQGEQINQLVQVVLLHGEQINKLTQTVEKQGEQIKELQVEQKAQGEQIKAQGKQIKAQGKTLKSILQALGGINKRLDKIDPPKLEHHHHHH result="not soluble"
seq_text=DRKAVLNAAEQHFSGWKELYLCLVDRDTQGGLVVETGGPLTFSEAERAAADWAWQHDQPAGSGTGTLPSGRWWWWPITAEEGPLALLGVCAREGQSFTDQHRRLLAALTQPLAQALARAQLAQELEAARLHGETEQLRSALLASVSHDLRTP result="not soluble"
seq_text=MSLLNEENNFYNVDLLDLLKDSNEAVLPYKRIRFRRNQKILTEGAETTYFYIIEDGVVSMSKNTCKEDSIISFLGKQDSIGPLTLLGGAKSPANYTSISEVSVYQFERKYVLNKLLSSPDVFWQMNSLMQSMVSPMLEREAYVNLPSSEKVLAGLIACGERFGRIESDGSCLIPYYFTQKILGNYLNLARAYVATNLRKLEEDGVISLSPKPWRVKNFDVHRQKLKDNYKPYI result="not soluble"
